IC50 reference
Tested System: DNA polymerase alpha catalytic subunit (Homo sapiens)
Sequence (P09884 whole entry): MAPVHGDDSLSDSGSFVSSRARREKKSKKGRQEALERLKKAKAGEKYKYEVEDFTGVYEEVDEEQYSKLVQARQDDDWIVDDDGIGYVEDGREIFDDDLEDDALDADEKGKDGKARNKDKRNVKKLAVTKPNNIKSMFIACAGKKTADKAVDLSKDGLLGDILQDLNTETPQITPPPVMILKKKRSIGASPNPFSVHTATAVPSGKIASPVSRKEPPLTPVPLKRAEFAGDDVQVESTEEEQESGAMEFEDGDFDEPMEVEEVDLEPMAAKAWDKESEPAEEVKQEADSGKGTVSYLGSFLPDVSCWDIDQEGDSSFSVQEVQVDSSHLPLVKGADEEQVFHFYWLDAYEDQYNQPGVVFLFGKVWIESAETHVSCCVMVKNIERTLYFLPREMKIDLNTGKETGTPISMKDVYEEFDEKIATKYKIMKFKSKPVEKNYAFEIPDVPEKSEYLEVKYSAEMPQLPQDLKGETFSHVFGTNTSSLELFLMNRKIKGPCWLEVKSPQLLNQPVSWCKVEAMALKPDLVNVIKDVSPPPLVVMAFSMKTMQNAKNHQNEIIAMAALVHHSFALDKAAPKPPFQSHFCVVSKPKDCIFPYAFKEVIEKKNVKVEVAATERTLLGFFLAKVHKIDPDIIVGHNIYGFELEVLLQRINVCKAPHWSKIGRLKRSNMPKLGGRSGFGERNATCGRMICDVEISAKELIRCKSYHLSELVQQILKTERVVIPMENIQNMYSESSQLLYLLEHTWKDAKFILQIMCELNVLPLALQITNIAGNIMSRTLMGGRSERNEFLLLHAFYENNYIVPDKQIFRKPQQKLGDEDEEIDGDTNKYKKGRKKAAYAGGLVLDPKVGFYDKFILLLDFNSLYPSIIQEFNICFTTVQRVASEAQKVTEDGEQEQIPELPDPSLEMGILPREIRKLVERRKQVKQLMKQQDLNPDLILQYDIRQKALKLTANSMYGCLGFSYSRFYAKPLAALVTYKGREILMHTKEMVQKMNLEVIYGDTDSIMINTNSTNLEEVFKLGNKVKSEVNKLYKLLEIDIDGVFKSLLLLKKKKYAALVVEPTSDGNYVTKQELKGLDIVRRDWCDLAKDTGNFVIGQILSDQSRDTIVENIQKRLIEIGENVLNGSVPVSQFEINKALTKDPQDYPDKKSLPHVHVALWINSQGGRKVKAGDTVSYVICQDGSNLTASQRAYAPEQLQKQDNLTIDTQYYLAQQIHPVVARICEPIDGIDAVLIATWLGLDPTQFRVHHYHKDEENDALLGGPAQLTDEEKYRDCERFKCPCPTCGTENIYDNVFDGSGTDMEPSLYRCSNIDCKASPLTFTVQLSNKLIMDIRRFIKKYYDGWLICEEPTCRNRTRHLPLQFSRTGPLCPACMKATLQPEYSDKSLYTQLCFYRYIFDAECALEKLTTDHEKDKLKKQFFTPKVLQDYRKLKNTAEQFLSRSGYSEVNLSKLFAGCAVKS
Procedure Details: Inhibition of human DNA polymerase alpha
Measurement Name: IC50

{"Test Smiles": "O=C(O)c1ccc(F)cc1NS(=O)(=O)c1cccc(-c2cnn(Cc3ccc4ccccc4c3)c2)c1", "Measurement Name": "IC50", "Reported Value": "> 20 µM"}
{"Test Smiles": "O=C(O)c1ccccc1NS(=O)(=O)c1cccc(-c2cnn(Cc3ccccc3)c2)c1", "Measurement Name": "IC50", "Reported Value": "> 20 µM"}
{"Test Smiles": "O=C(O)c1ccc(F)cc1NS(=O)(=O)c1cccc(-c2cnn(Cc3ccccc3)c2)c1", "Measurement Name": "IC50", "Reported Value": "> 20 µM"}
